Subject Of Test: Dopamine beta hydroxylase (Homo sapiens, UniProt P09172)
Construct: 125 μl of plasma; tissue Instituto Português do Sangue Transplantação; host or cells: human plasma from healthy donors
Sequence (P09172 40-617 limits assumed): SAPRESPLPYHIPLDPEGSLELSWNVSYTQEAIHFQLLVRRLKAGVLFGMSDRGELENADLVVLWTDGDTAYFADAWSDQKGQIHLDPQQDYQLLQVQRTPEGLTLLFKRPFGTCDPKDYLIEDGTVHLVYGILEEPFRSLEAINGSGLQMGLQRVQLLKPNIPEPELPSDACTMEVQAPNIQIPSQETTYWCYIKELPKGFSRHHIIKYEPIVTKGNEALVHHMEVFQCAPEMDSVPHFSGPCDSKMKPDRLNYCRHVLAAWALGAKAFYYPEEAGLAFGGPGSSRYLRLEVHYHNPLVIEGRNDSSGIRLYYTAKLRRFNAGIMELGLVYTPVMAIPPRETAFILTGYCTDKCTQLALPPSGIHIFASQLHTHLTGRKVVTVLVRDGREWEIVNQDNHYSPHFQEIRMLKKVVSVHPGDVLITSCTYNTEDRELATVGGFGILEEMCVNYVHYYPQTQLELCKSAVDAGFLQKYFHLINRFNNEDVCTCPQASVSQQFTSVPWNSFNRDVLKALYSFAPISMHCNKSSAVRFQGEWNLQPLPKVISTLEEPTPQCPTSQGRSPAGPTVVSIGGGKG
Assay Name: Dopamine beta hydroxylase activity in human plasma
Format: biochemical
Condition: inhibitor 0.01 μM
Measurement Label: Plasma (0.01 μM), activity in % of control

* O=C(Cc1[nH]c(=S)n2c1C[C@H](c1c(F)ccc(Br)c1F)C2)N1CCS(=O)(=O)CC1 | 106.5 % of control
* CS(=O)(=O)C1CCN(C(=O)Cc2[nH]c(=S)n3c2C[C@@H](c2c(F)ccc(Br)c2F)C3)CC1 | 51.9 % of control
* Cn1c(CC(=O)NC2COC2)c2n(c1=S)C[C@@H](c1c(F)c(F)cc(F)c1F)C2 | 92.1 % of control
* Cn1c(CC(=O)N2CCNC(=O)C2)c2n(c1=S)C[C@@H](c1c(F)c(F)cc(F)c1F)C2 | 86.3 % of control
* Cn1c(CC(=O)NC2(C#N)CC2)c2n(c1=S)C[C@@H](c1c(F)ccc(F)c1F)C2 | 81.4 % of control
* CN(C(=O)Cc1c2n(c(=S)n1C)C[C@@H](c1c(F)cccc1F)C2)C1COC1 | 93.3 % of control
* Cn1c(CCC(=O)N2CCOCC2)c2n(c1=S)C[C@@H](c1c(F)c(F)cc(F)c1F)C2 | 88.4 % of control
* O=C(Cc1[nH]c(=S)n2c1[C@@H]1C[C@]1(c1cc(Cl)ccc1F)C2)Nc1cccnc1 | 40.4 % of control
* O=C(Cc1[nH]c(=S)n2c1[C@@H]1C[C@]1(c1cc(Br)ccc1F)C2)NCC(F)(F)F | 72.1 % of control
* Cn1c(CC(=O)NCC#N)c2n(c1=S)C[C@@]1(c3cc(Br)ccc3F)C[C@@H]21 | 61.2 % of control
* CN(C(=O)Cc1[nH]c(=S)n2c1C[C@@H](c1c(F)ccc(Cl)c1F)C2)C1CCS(=O)(=O)CC1 | 14.8 % of control
* Cn1c(CC(N)=O)c2n(c1=S)C[C@@]1(c3cc(Cl)ccc3F)C[C@@H]21 | 99.6 % of control
* O=C(Cc1[nH]c(=S)n2c1[C@@H]1C[C@]1(c1cc(Cl)ccc1F)C2)N1CCCCC1 | 90.9 % of control
* O=C(Cc1[nH]c(=S)n2c1C[C@H](c1c(F)ccc(Br)c1F)C2)N1CCOCC1 | 93.2 % of control
* Fc1ccc(F)c([C@H]2Cc3c(CCN[C@@H]4CCOC4)[nH]c(=S)n3C2)c1F | 112.0 % of control
* CN(C(=O)Cc1c2n(c(=S)n1C)C[C@@H](c1c(F)ccc(F)c1F)C2)C1CCOCC1 | 93.4 % of control
* Cl.Cn1c(CCNCC2CCOCC2)c2n(c1=S)C[C@@H](c1c(F)ccc(F)c1F)C2 | 84.6 % of control
* O=C(Cc1[nH]c(=S)n2c1C[C@@H](c1c(F)ccc(Cl)c1F)C2)N1CCOCC1 | 89.5 % of control
* Cn1c(CC(=O)NC2CCCC2C#N)c2n(c1=S)C[C@@H](c1c(F)ccc(F)c1F)C2 (stereo partly shown) | 77.2 % of control
* CN(C(=O)Cc1c2n(c(=S)n1C)C[C@@]1(c3cc(Br)ccc3F)C[C@@H]21)C1CCOC1 (stereo partly shown) | 57.2 % of control
* Cl.Fc1cc(F)c(F)c([C@H]2Cc3c(CN4CCCC4)[nH]c(=S)n3C2)c1F | 94.6 % of control
* CN(C(=O)Cc1c2n(c(=S)n1C)C[C@H](c1c(F)ccc(F)c1F)C2)C1COC1 | 66.5 % of control
* Cn1c(CC(=O)O)c2n(c1=S)C[C@H](c1c(F)ccc(F)c1F)C2 | 112.6 % of control
* CS(=O)(=O)CCNC(=O)Cc1[nH]c(=S)n2c1C[C@@H](c1c(F)ccc(Cl)c1F)C2 | 58.4 % of control
* Cn1c(CC(=O)NC2CCOCC2)c2n(c1=S)C[C@@H](c1c(F)ccc(F)c1F)C2 | 84.3 % of control
* Cn1c(CC(=O)N[C@@H]2CCCOC2)c2n(c1=S)C[C@@]1(c3c(F)ccc(Cl)c3F)C[C@@H]21 | 14.9 % of control
* COC[C@@H]1CCCN1C(=O)Cc1c2n(c(=S)n1C)C[C@@H](c1c(F)ccc(F)c1F)C2 | 81.7 % of control
* O=C(Cc1[nH]c(=S)n2c1C[C@@H](c1c(F)ccc(Cl)c1F)C2)N[C@@H]1CCOC1 | 43.2 % of control
* O=C(NCc1[nH]c(=S)n2c1C[C@@H](c1c(F)ccc(Cl)c1F)C2)C1CCCC1 | 79.3 % of control
* CN(C(=O)Cc1[nH]c(=S)n2c1C[C@H](c1c(F)ccc(F)c1F)C2)C1COC1 | 87.8 % of control
* CN(C(=O)Cc1c2n(c(=S)n1C)C[C@H](c1c(F)ccc(Br)c1F)C2)C1CCOC1 (stereo partly shown) | 82.2 % of control
